// provenance: ChEMBL document CHEMBL4229568

The entries below are paired with their reported fold change (FC).
# measured target: Nuclear factor erythroid 2-related factor 2 (Mus musculus) (UniProt Q60795)
# Sequence (Q60795 whole entry): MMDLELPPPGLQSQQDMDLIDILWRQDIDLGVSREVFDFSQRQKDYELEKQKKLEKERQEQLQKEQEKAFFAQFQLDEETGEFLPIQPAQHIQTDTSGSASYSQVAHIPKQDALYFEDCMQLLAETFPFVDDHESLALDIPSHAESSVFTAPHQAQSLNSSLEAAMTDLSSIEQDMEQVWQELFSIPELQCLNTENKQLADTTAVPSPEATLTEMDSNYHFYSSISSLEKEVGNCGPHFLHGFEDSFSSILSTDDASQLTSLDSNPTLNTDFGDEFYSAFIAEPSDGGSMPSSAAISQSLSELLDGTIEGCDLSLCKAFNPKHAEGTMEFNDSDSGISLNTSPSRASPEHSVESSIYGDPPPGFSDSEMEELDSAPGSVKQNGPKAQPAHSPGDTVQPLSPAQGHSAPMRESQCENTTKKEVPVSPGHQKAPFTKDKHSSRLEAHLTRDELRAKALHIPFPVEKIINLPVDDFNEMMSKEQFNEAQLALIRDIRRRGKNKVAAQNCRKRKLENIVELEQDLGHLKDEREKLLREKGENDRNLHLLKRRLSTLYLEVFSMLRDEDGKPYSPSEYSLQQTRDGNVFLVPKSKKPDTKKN
# assay info: Activation of Nrf2 in mouse Heap1c1c7 cells assessed as induction of NAD(P)H:quinone reductase activity at 25 uM relative to control
# Type: cell-based
Number only, no unit.

Consider the following illustrative entries.
>>> endpoint_result("COc1cc(/C=C/C(=O)C/C(C)=C/Cc2c(O)ccc(C(=O)/C=C/c3ccc(O)cc3)c2O)ccc1O")
1.49
>>> endpoint_result("C/C(=C/Cc1c(O)ccc(C(=O)/C=C/c2ccc(O)cc2O)c1O)CC(=O)/C=C/c1ccc(O)cc1")
1.39
>>> endpoint_result("COc1ccc(-c2coc3cc(OC)cc(O)c3c2=O)cc1 [4',7-DIMETHOXY-5-HYDROXYGENISTEIN]")
2.08

Using the record for CC(C)/C=C/c1c(O)cc2oc(-c3ccc(O)cc3O)c(/C=C/C(C)C)c(=O)c2c1O , state its measured fold change (FC).
1.4

Using the record for C/C(=C\Cc1c(O)ccc(C(=O)/C=C/c2ccc(O)cc2)c1O)CC(=O)/C=C/c1ccc(O)cc1 , state its measured fold change (FC).
1.57

###

The entries below are paired with their reported fold change (FC).
# measured target: Nuclear factor erythroid 2-related factor 2 (Mus musculus)
# assay info: Activation of Nrf2 in mouse Heap1c1c7 cells assessed as induction of NAD(P)H:quinone reductase activity at 50 uM relative to control
# Format: cell-based

>>> endpoint_result("CC(C)=CCc1c(O)cc2oc(-c3ccc(O)cc3O)c(/C=C/C(C)C)c(=O)c2c1O")
1.86
>>> endpoint_result("O=c1c(O)c(-c2ccc(O)cc2)oc2cc(O)cc(O)c12")
1.51
>>> endpoint_result("O=C1C[C@@H](c2ccc(O)c(O)c2)Oc2cc(O)cc(O)c21")
1.36
>>> endpoint_result("COc1cc([C@@H]2CC(=O)c3c(O)cc(O)cc3O2)ccc1O")
1.51
>>> endpoint_result("O=c1cc(-c2ccc(O)c(-c3c(O)cc(O)c4c(=O)cc(-c5ccc(O)cc5)oc34)c2)oc2cc(O)cc(O)c12")
1.42

Attention now turns to another entry.
Using the record for CC(C)=CCc1c(O)ccc(C(=O)/C=C/c2ccc(O)cc2)c1O , state its measured fold change (FC).
1.69

###

# measured target: Nuclear factor erythroid 2-related factor 2 (Mus musculus) (UniProt Q60795)
# assay info: Activation of Nrf2 in mouse Heap1c1c7 cells assessed as induction of NAD(P)H:quinone reductase activity at 100 uM relative to control
# Type: cell-based
test readout: fold change (FC)
Number only, no unit.

Consider the following illustrative entries.
>>> endpoint_result("CC(C)=CCc1c(O)cc2oc3c(c(=O)c2c1O)C(C=C(C)C)Oc1cc(O)ccc1-3 (stereo not given)")
1.31
>>> endpoint_result("O=C1c2c(O)cc(O)cc2OC(c2ccc(O)cc2)C1O (stereo not given)")
1.49
>>> endpoint_result("C/C(=C\\Cc1c(O)ccc(C(=O)/C=C/c2ccc(O)cc2O)c1O)CO")
1.61
>>> endpoint_result("CC(C)=CCc1c(O)ccc(C(=O)/C=C/c2ccc(O)cc2O)c1O")
1.34
>>> endpoint_result("O=C1CC(c2ccc(O)c(O)c2)Oc2cc(O[C@@H]3O[C@H](CO)[C@@H](O)[C@H](O)[C@H]3O)cc(O)c21 (stereo not given in full)")
1.66
>>> endpoint_result("CC(C)=CCc1c(-c2ccc(O)cc2O)oc2cc(O)cc(O)c2c1=O")
1.31
>>> endpoint_result("C/C(=C\\Cc1c(O)ccc(C(=O)/C=C/c2ccc(O)cc2)c1O)CO")
1.43
>>> endpoint_result("COc1ccc([C@@H]2CC(=O)c3c(cc(OC)c(OC)c3OC)O2)cc1OC")
1.81
>>> endpoint_result("C/C(=C/Cc1c(O)ccc(C(=O)/C=C/c2ccc(O)cc2)c1O)CO")
1.52

Using the record for CC(C)=CCc1c(O)ccc2c1OC(c1ccc(O)cc1O)CC2=O (stereo not given) , state its measured fold change (FC).
1.75
